src = PubChem BioAssay (NCI)

tested on: NCI-H522 lung; experiment: NCI-60 one-dose screen, 48 h; conditions: 10 µM unless noted
This is part of a sample that, as a whole, favours compounds with a hit. Of some 83,000 tested, about 20% had one in any assay. Active and inactive are the calls of the source. The calls were made as follows: active = growth percent below 10; inactive = the rest.
Lab note: assign the record to one of active, inactive

Completed entries (count: 3):
| smiles_notation | discrete_label |
| --- | --- |
| O=C(N/N=C\c1ccccc1O)C1CC1 | inactive |
| COc1cccc(-c2nn(-c3ccccc3)cc2-c2ccnc(NCCCNS(=O)(=O)c3cccc(F)c3)c2)c1 | active |
| O=[N+]([O-])c1ccc(N/N=C(\C(=N/Nc2ccc([N+](=O)[O-])cc2[N+](=O)[O-])c2ccccc2)c2ccccc2)c([N+](=O)[O-])c1 | inactive |

Recorded call for COc1cc2c(cc1-c1c(C)noc1C)ncc1nc(C3CC3)n([C@H](C)COC(F)F)c12 ?
inactive

Recorded call for Brc1cnc2[nH]cc(-c3nnc(-c4ccccc4)o3)c2c1 ?
inactive

----------
test system: SR leukemia; experiment: NCI-60 one-dose screen, 48 h; conditions: 10 µM unless noted
Compounds without any hit were thinned out: in the full panel of roughly 83,000, 20% have a hit. Activity calls are given as the source filed them. How the source made its calls: active means growth percent below 10; inactive means the rest.
Lab note: assign the record to one of active, inactive

Recorded call for COc1cnc2c(c1)C(=O)c1c-2n(CCCN2CCN(CCO)CC2)c(=O)c2cc([N+](=O)[O-])ccc12 ?
active

Recorded call for CC(C)=CCC[C@](C)(O)[C@H]1CC[C@]2(C)[C@@H]1CC[C@@H]1[C@@]3(C)C/C(=C/c4cccc([N+](=O)[O-])c4)C(=O)C(C)(C)[C@@H]3CC[C@]12C ?
inactive

Recorded call for N#C/C(=C\c1ccc(-c2ccc(Br)cc2)o1)c1nc(-c2ccco2)cs1 ?
inactive

Recorded call for Brc1ccc2c(c1)c(-c1nc(-c3c[nH]c4ncccc34)cs1)cn2CCCN1CCCCC1 ?
active

Recorded call for CCN(CC)CCCCCCNc1ccnc2cc(Cl)ccc12 ?
inactive

Recorded call for COC(=O)[C@]12CC[C@@H](C(C)=O)[C@@H]1[C@H]1CC[C@@H]3[C@@]4(C)C/C(=C/c5cccnc5)C(=O)C(C)(C)[C@@H]4CC[C@@]3(C)[C@]1(C)CC2 ?
inactive

Recorded call for COc1cnc2c(c1)C(=O)c1c-2n(CCCNC2=NCCS2)c(=O)c2cc([N+](=O)[O-])ccc12 ?
active

Recorded call for COc1ccc(-c2cc(-c3c(C)oc4cc5occc5c(OC)c4c3=O)nc(N)c2C#N)cc1OC ?
active

Recorded call for O=C1CCN2C(=O)Nc3ccccc3C2C1 (stereo unspecified) ?
inactive

Recorded call for Clc1ccc(Cn2cc(-c3nc4ccc(Br)nc4n3Cc3ccc(Cl)cc3)c3cccnc32)cc1 ?
inactive

Recorded call for COc1cc(/C=C/c2cc(/C=C/c3ccc(O)c(OC)c3)n(-c3ccc(Cl)cc3)c(=O)n2)ccc1O ?
inactive

Recorded call for Cn1cc(-c2csc(-c3cn(CCNC(=O)OC(C)(C)C)c4ccc(F)cc34)n2)c2cccnc21 ?
inactive

Recorded call for CC1(C)NCCC[C@]2(C)[C@H]3CC[C@@H]4[C@H]5[C@H](C(=O)/C=C/c6ccccn6)CC[C@]5(CO)CC[C@@]4(C)[C@]3(C)CC[C@@H]12 ?
active

Recorded call for O=C1CCC/C=C\C[C@H]2C=C(Cl)C(=O)/C2=C/C[C@H](CCCCC(F)(F)F)OC(=O)CCC/C=C\C[C@H]2C=C(Cl)C(=O)/C2=C/C[C@H](CCCCC(F)(F)F)O1 ?
active

Recorded call for CC(=O)c1c(C)[nH]c(-c2nc3ccc(N4CCN(C)CC4)cc3[nH]2)c1-c1ccc(N(C)C)cc1 ?
inactive

Recorded call for NCCNc1nc(-c2ccccc2)nc2nc(-c3ccccc3)oc12 ?
active

----------
Quick list: growth per entry.
Test system: HCC-2998 colon
Assay: NCI-60 one-dose screen, 48 h (100 = growth as untreated, 0 = no growth, -100 = all killed)
Settings: 10 µM unless noted
Procedure: Growth inhibition of the HCC-2998 human tumor cell line is measured as a screen for anti-cancer activity. Cells are grown in 96 well plates and exposed to the test compound for 48 hours. Compounds are tested at a single concentration, which is 10^-5 M for most compounds. The reported endpoint is percent growth (GI% or GIPRCNT), where numbers from 0 - 100% represent growth inhibition, and numbers from -100% - 0 represent cell death. For example, a value of 40 represents 60% growth inhibition. […]
The panel holds about 83,000 compounds, 20% with a hit somewhere; the sample as a whole holds those more often.
Answer with a number only, understood to be in %.

Illustrative cases are given below, each with its answer.
| smiles_notation | value_units | growth |
| --- | --- | --- |
| C/C(=N\Nc1cc(C)c2ccccc2n1)c1ccccn1 | % | 4.77 |
| c1ccc(-c2nc(Nc3ccc(-c4nc5ccccc5[nH]4)cc3)nc(N3CCOCC3)n2)cc1 | % | -80.7 |
| CCC(=O)c1c(C)[nH]c(C)c1C | % | 114 |

# query: growth of entry CCN(CC)CCCCCNc1cc(OC(=O)c2ccccc2)cc2cccnc12
104

# query: growth of entry O=C(N/N=C/c1ccccc1SSc1ccccc1/C=N/NC(=O)c1ccccc1)c1ccccc1
55.6

# query: growth of entry COc1cc(-c2cc(-c3nc4cc(Cl)c(Cl)cc4[nH]3)[nH]n2)cc(OC)c1OC
92.3

----------
Tested on: PC-3 prostate
Assay: NCI-60 one-dose screen, 48 h
Details: 10 µM unless noted
Description: Growth inhibition of the PC-3 human tumor cell line is measured as a screen for anti-cancer activity. Cells are grown in 96 well plates and exposed to the test compound for 48 hours. Compounds are tested at a single concentration, which is 10^-5 M for most compounds. The reported endpoint is percent growth (GI% or GIPRCNT), where numbers from 0 - 100% represent growth inhibition, and numbers from -100% - 0 represent cell death. For example, a value of 40 represents 60% growth inhibition. […]
The panel holds about 83,000 compounds, 20% with a hit somewhere; the sample as a whole holds those more often. Calls of active or inactive are those of the source. The calls were made as follows: active = growth percent below 10; inactive = the rest.
Lab note: assign the record to one of active, inactive

Completed entries (count: 4):
| compound | discrete_label |
| --- | --- |
| O=C(/C(=C(\C(=O)c1ccccc1)c1ccccc1)c1ccccc1)c1ccccc1 | inactive |
| Cc1cc(N2CCCC2)nc(N(CCNc2ccnc3cc(Cl)ccc23)Cc2ccco2)n1 | active |
| Cn1cc(-c2csc(-c3cn(C(=O)OC(C)(C)C)c4ccccc34)n2)c2cccnc21 | inactive |
| COc1ccc2nc(-c3cc(-c4cc(OC)c(OC)c(OC)c4)n[nH]3)[nH]c2c1 | active |

Recorded call for Cc1cc2nc3c4cc(Cl)ccc4n(CCN(C)C)c3nc2cc1C ?
inactive

----------
system: SK-OV-3 ovarian; assay: NCI-60 one-dose screen, 48 h (100 = growth as untreated, 0 = no growth, -100 = all killed); conditions: 10 µM unless noted
About 83,000 compounds went through this panel and 20% of them were active in at least one assay; those are over-represented in the sample as a whole.
Quick list: growth per entry.
Answer with a number only, understood to be in %.

| smiles_notation | measured_attribute | reported_result |
| --- | --- | --- |
| Cc1cc(N(CCCNc2ccnc3cc(Cl)ccc23)Cc2ccco2)nc(N2CCOCC2)n1 | growth | 78.6 |
| C=C1CC[C@@H](C(=O)OC)Cc2nc(C)ccc21 | growth | 109 |
| CCN1CCN(c2nc(C)cc(N(CCCNc3ccnc4cc(Cl)ccc34)Cc3ccco3)n2)CC1 | growth | 97.2 |
| C=C(C)[C@@H]1CC[C@]2(C(=O)NNC(=O)c3cccnc3)CC[C@]3(C)[C@H](CC[C@@H]4[C@@]5(C)CCCNC(C)(C)[C@@H]5CC[C@]43C)[C@@H]12 | growth | 107 |
| COc1cc(/C=C/c2cc(/C=C/c3ccc(O)c(OC)c3)n(-c3ccc(Cl)cc3)c(=O)n2)ccc1O | growth | 89.7 |
| COc1ccc(/C(=C\c2ccc3c(c2)OCO3)C(=O)Nc2nc3ccccc3s2)cc1OC | growth | 102 |

# query: growth of entry Nc1ncnc2nc(Br)[nH]c12
95.2

# query: growth of entry Cn1c(/C(C#N)=C/c2ccc3ccccc3c2)cc2ccccc21
58.8

# query: growth of entry O=C1c2cc3c(cc2-c2c1c1ccc(F)cc1c(=O)n2CCCN1CCOCC1)OCO3
20.1

----------
tested on: NCI-H522 lung; experiment: NCI-60 one-dose screen, 48 h; settings: 10 µM unless noted
This is part of a sample that, as a whole, favours compounds with a hit. Of some 83,000 tested, about 20% had one in any assay. Calls of active or inactive are those of the source. How the source made its calls: active means growth percent below 10; inactive means the rest.
Lab note: assign the record to one of t for active, f for inactive

| compound | system_under_test | discrete_label |
| --- | --- | --- |
| C[C@]12CC[C@@H]3c4ccc(O)cc4CC[C@H]3[C@@H]1C[C@H](O)[C@@H]2O | NCI-H522 lung | f |
| CC(C)(C)c1nc(-c2ccc(O)c(O)c2)cs1 | NCI-H522 lung | f |
| C=C1C(=O)O[C@H]2[C@H]1CC/C(COC(=O)NCc1cc3ccccc3[nH]1)=C\CC[C@@]1(C)O[C@@H]21 | NCI-H522 lung | t |
| Nc1c2c(nc3ccc(Cl)cc13)CC(c1ccc(O)cc1)CC2=O (stereo unspecified) | NCI-H522 lung | f |
| N#C/C(=C\c1ccc(-c2ccc(F)cc2)o1)c1nc(-c2ccco2)cs1 | NCI-H522 lung | f |
| Cc1ccc(-c2ccc(Nc3ccccc3)nn2)cc1S(N)(=O)=O | NCI-H522 lung | f |
| Clc1ccccc1-c1nc(Nc2nc3ccccc3s2)nc(C(Cl)(Cl)Cl)n1 | NCI-H522 lung | f |
| C=C(C)[C@@H]1CC[C@]2(C(=O)N3CCN(C)CC3)CC[C@]3(C)[C@H](CC[C@@H]4[C@@]5(C)C/C(=C/c6ccc(C(F)(F)F)cc6)C(=O)C(C)(C)[C@@H]5CC[C@]43C)[C@@H]12 | NCI-H522 lung | f |

Recorded call for CC(C)(C)c1[nH]nc2c1C(c1cc3ccccc3[nH]c1=O)Nc1cc(C(=O)OCc3ccccc3)ccc1N2 (stereo unspecified) ?
f

Recorded call for C[N+](C)(CCCCCC[N+](C)(C)C1c2ccccc2-c2ccccc21)C1c2ccccc2-c2ccccc21 ?
f

Recorded call for O=C(/C=C/c1ccc2ccccc2c1)Nc1ncc(Cc2ccccc2)s1 ?
f

Recorded call for CCNCCCn1c2c(c3ccc([N+](=O)[O-])cc3c1=O)C(=O)c1cc(OC)cnc1-2 ?
t

Recorded call for Fc1ccc2c(c1)c(-c1nc(-c3c[nH]c4ncccc34)cs1)cn2CCCN1CCCCC1 ?
f

Recorded call for Nc1nc2c(c(=O)[nH]1)C(c1ccc3c(c1)OCO3)C=C(C(=O)O)N2 (stereo unspecified) ?
f

Recorded call for CCCCC[C@H]1C/C=C2/C(=O)C(Cl)=C[C@@H]2C/C=C\CCCC(=O)O1 ?
t

Recorded call for O=c1c(CNc2ccc(S(=O)(=O)Nc3nccs3)cc2)coc2ccccc12 ?
f

Recorded call for Nc1ncnc2nc(Br)[nH]c12 ?
f
